Target: T1, human ACVR2A (human, UniProt P27037 20-135, limits assumed); further: test concentration or dose not given here
T1 construct: coated antigen of the initial ELISA; also called activin receptor, type II A
T1 sequence (P27037 20-135 limits assumed): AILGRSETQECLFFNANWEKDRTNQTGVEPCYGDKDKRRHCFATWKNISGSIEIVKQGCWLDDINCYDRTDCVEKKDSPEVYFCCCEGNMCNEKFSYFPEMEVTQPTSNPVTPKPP
Experiment: ELISA
MEASURED PARAMETER: optical density (OD)
Just the number please, in OD, no unit attached.

Note to self: optical density recorded for 374_G11 (antibody, V domains shown, Group III) VH: EVQLLESGGGLVQPGGSLRLSCAASGFTFSDYSMNWVRQAPGKGLEWVSGINYNGGYTSYADSVKGRFTISRDNSKNTLYLQMNSLRAEDTAVYYCARGANWHDTALDYWGQGTLVTVSS VL: DIQMTQSPSSLSASVGDRVTITCRASQSIISYVNWYQQKPGKAPKLVIYAATSLASGVPSRFSGSGSGTDFTLTISSLQPEDFATYYCQQSYDSPLTFGGGTKVEIK was 3.65

Note to self: optical density recorded for 373_A12 (antibody, V domains shown, Group III) VH: EVQLLESGGGLVQPGGSLRLSCAASGFTFSSYSMNWVRQAPGKGLEWVSSINYNGGYTSYADSVKGRFTISRDNSKNTLYLQMNSLRAEDTAVYYCARGANWHDTALDYWGQGTLVTVSS VL: DIQMTQSPSSLSASVGDRVTITCRASQSILTYLNWYQQKPGKAPKLVIYAATSRASGVPSRFSGSGSGTDFTLTISSLQPEDFATYYCQQSYDTPLTFGGGTKVEIK was 3.59

Note to self: optical density recorded for 371_G04 (antibody, V domains shown, Group III) VH: EVQLLESGGGLVQPGGSLRLSCAASGFTFDSYSMNWVRQAPGKGLEWVSGINYNGGYKSYADSVKGRFTISRDNSKNTLYLQMNSLRAEDTAVYYCARGANWHDTALDYWGQGTLVTVSS VL: DIQMTQSPSSLSASVGDRVTITCRASQSILSYLNWYQQKPGKAPKLLIYAATSLHSGVPSRFSGSGSGTDFTLTISSLQPEDFATYYCQQSYESPLTFGGGTKVEIK was 3.62
